This collection of values is drawn from PubChem BioAssay AID1851.

Target: Cytochrome P450 3A4 (Homo sapiens)
Assay: Cytochrome panel assay with activity outcomes
Settings: recombinant CYP, pro-luciferin dealkylation, luminescence, p450-cyp3a4; series mostly up to 57.1 µM
The campaign covered roughly 16,000 compounds. About 5,100 (32%) were called active. Inconclusive results (about 25%) are left out. Calls come from the whole dose curve; as a rule, active = well fitted curve in the direction sought with a large enough effect; inconclusive = small, poorly fitted or top-dose-only effect, or effect the other way; inactive = no such curve, though single readings can be large or run the other way. The list shows a part of the results.
Field 'call' accepts active, inactive

Illustrative cases are given below, each with its answer.
# RECORD SMILES, TARGET SYSTEM, ASSIGNED CATEGORY
rows = [
    ("Cc1ncc(CO)c(CO)c1O", "Cytochrome P450 3A4 (Homo sapiens)", "inactive"),
    ("O=Nc1c(O)n(Cc2ccc(Cl)c(Cl)c2)c2ccccc12", "Cytochrome P450 3A4 (Homo sapiens)", "active"),
    ("COCCCNC(=O)Cn1nc(-c2ccccc2OC)ccc1=O", "Cytochrome P450 3A4 (Homo sapiens)", "inactive"),
    ("CNc1ncnc2ccc(-c3ccccc3CN(C)C)cc12", "Cytochrome P450 3A4 (Homo sapiens)", "active"),
    ("NC(=O)C[C@H](NC(=O)Cc1ccc(O)cc1O)C(=O)O", "Cytochrome P450 3A4 (Homo sapiens)", "inactive"),
    ("O=Nc1c(O)n(Cc2ccc(Cl)cc2)c2ccccc12", "Cytochrome P450 3A4 (Homo sapiens)", "active"),
]

Data request: Assay outcome for O=c1[nH]ncc2c3ccccc3n(Cc3ccccc3)c12 : what was it?
Data returned: inactive

Data request: Let us now turn to COc1ccccc1CNc1ncnc2ccc(-c3ccccc3OC)cc12
Data returned: active

Data request: Next record, please: CN(C)Cc1ccccc1-c1ccc2ncnc(NCc3ccccc3)c2c1
Data returned: active
